- Tested on: B6C3F1 mice, ip Sarcoma M5076, median survival T/C
- Run Description: NCI In Vivo Anticancer Drug Screen. Data for tumor model Sarcoma M5076 (intraperitoneal) in B6C3F1 mice
- Experimental Setup: endpoint: median survival time; dose: 100.0 mg/kg/injection; schedule: Q04DX004 (ip); vehicle: saline with Tween-80; higher = longer survival
Toxic doses and inconclusive results are not listed.
Measured Metric: T/C

• Cc1cc2c(C(C)C)c(O)c(O)c(C=NCCO)c2c(O)c1-c1c(C)cc2c(C(C)C)c(O)c(O)c(C=NCCO)c2c1O = 121 % of control
• COC(=O)c1ccc(OCc2nc3ccccc3[nH]2)cc1 = 95 % of control
• COc1ccc(O)cc1 = 105 % of control
• Clc1cc2c(nn1)Nc1ccccc1S2 = 95 % of control
• NNC(=O)c1ccc(OCc2nc3ccccc3[nH]2)cc1 = 101 % of control
• Cc1ccc2c(c1)C1(SC(C)C(=O)N1c1ccc(Cl)cc1)C(=O)N2 (configuration not stated) = 101 % of control
• Nc1ccc2c(c1)CN1C(=O)c3ccccc3C1=N2 = 116 % of control

This collection of values is drawn from PubChem BioAssay AID292.
